# EXPERIMENT: Rough solubility at room temperature
# Format: physicochemical
# CONDITION_SET: organic solvent or mixture, thermodynamic from solid, IPA
MEASURE: solubility

Ask: Item under review: O=C1CO[C@H](c2cn(-c3ccc(Br)cc3)nc2-c2ccc(F)cc2)N1CCc1ccc2[nH]c(=O)[nH]c2c1 [Crystal form A] . Reported solubility?
Reply: < 2100 µg/mL

====

# EXPERIMENT: Rough solubility at room temperature
# Format: physicochemical
# CONDITION_SET: organic solvent or mixture, thermodynamic from solid, DCM
# Protocol: Specifically, ~2 mg of the starting material was weighed in an HPLC vial, the solvents in the following table were added step by step (50/50/200/700 μL) until the solid is completely dissolved or the total volume reaches 1.0 mL.
MEASURE: solubility

Ask: Item under review: O=C1CO[C@H](c2cn(-c3ccc(Br)cc3)nc2-c2ccc(F)cc2)N1CCc1ccc2[nH]c(=O)[nH]c2c1 [Crystal form A] . Reported solubility?
Reply: < 2100 µg/mL

All values here come from patent US12686674B2.
